- tested system: hFAP (Homo sapiens)
- Construct: purchased R&D Systems 3715-SE
- Sequence (Q12884 whole entry): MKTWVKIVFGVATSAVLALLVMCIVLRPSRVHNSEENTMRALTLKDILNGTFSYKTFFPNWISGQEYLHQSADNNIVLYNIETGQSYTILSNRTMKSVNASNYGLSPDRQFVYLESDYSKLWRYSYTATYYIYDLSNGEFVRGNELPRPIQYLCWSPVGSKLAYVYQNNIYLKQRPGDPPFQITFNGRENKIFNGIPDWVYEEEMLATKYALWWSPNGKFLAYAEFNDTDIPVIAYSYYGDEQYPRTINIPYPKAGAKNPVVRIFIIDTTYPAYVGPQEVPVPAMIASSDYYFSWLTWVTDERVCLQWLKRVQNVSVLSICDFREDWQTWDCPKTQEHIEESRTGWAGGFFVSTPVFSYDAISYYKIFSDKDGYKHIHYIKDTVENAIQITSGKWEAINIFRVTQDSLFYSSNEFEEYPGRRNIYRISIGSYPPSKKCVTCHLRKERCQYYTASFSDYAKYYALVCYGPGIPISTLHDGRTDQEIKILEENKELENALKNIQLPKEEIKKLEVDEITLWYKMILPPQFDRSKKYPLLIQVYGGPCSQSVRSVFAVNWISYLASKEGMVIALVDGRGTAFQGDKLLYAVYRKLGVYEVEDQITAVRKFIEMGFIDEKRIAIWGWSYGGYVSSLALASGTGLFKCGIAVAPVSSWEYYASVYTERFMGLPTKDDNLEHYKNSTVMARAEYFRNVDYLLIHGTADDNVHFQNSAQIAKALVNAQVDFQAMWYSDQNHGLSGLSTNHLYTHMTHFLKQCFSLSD
- protocol text: FAP enzyme activity, fluorometric assay with AMC substrate
- Format: biochemical
- assay conditions: various assays: SDS-PAGE shift, AMC-coupled substrate, serum samples from different species; read-out: IC50 values on FAP, all measurements
pIC50: −log10 of the molar value.
endpoint name: pIC50

## Input Given N#Cc1ccc(Cc2nc(C(=O)NCC(=O)N3CC(F)(F)C[C@H]3C#N)cs2)cc1 [BR103354] , respond with its pIC50.
## Output 7.52 to 8.00

###

- protocol text: Pharmacokinetic study in rats
- Assay type: in vivo
- assay conditions: male, Sprague-Dawley, plasma; rat, oral 10 mg/kg
endpoint name: half-life (h)
Provide the reading as a plain figure in h.

## Input Please report the measured half-life for N#Cc1ccc(Cc2nc(C(=O)NCC(=O)N3CC(F)(F)C[C@H]3C#N)cs2)cc1
## Output 3.5

###

- protocol text: Plasma stability, mouse
- Format: in vitro ADME
- assay conditions: pH 7.4, mouse (M), read-out: Plasma stability (% remaining at 60 min)
endpoint name: remaining at 1 h, 1 µM (%)
Please reply with the bare figure in % and do not write the unit itself.

## Input Identify remaining at 1 h, 1 µM associated with the compound N#Cc1ccc(Cc2nc(C(=O)NCC(=O)N3CC(F)(F)C[C@H]3C#N)cs2)cc1
## Output 94

###

- protocol text: Pharmacokinetic study in mice
- Assay type: in vivo, C57BL/6J mice
- assay conditions: male, C57BL/6J, plasma, po; mouse, p.o. 10 mg/kg
endpoint name: AUC(0-t) (ng·h/mL)
Reply with just the number (in ng·h/mL).

## Input Check the records and state AUC(0-t) for N#Cc1ccc(Cc2nc(C(=O)NCC(=O)N3CC(F)(F)C[C@H]3C#N)cs2)cc1
## Output 41100

###

- tested system: CYP 1A2 (Homo sapiens, UniProt P05177)
- Construct: from tissue; host or cells: human liver microsomes
- Sequence (P05177 whole entry): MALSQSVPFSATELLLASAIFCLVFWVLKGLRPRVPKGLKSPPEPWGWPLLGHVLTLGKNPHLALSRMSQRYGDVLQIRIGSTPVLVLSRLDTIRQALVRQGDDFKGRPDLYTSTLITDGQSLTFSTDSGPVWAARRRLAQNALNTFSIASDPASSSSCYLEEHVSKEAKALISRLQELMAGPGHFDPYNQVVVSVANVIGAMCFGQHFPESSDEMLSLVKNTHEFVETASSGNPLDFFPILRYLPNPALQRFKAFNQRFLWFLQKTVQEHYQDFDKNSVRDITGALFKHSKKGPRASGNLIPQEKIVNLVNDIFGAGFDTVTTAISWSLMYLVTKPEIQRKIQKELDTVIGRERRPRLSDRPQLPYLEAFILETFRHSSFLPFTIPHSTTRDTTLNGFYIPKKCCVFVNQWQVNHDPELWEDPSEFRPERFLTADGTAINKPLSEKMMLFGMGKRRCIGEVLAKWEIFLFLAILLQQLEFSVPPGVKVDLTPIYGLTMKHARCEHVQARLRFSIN
- protocol text: CYPs inhibition, human liver microsome, substrate cocktail
- Assay type: in vitro ADME
- assay conditions: 1st of 5 values; head prints H; footnote lists CYPs 1A2, 2C9, 2C19, 2D6, 3A4; read-out: CYPs inhibition (IC50, µM) (H/Mk/D/R/M)
endpoint name: IC50

## Input Name the recorded IC50 of the compound listed here: N#Cc1ccc(Cc2nc(C(=O)NCC(=O)N3CC(F)(F)C[C@H]3C#N)cs2)cc1
## Output > 50 µM

###

- protocol text: Pharmacokinetic study in rats
- Assay type: in vivo
- assay conditions: male, Sprague-Dawley, plasma; rat, oral 10 mg/kg
- Excerpt: Six male Sprague–Dawley rats (7-week-old, 240–250 g) were obtained from Orient Bio INC. (Seongnam, Gyeonggi-do, Korea) and maintained at 22℃ on a 12-h light/12-h dark cycle with free access to water. All animals were maintained under such conditions for a minimum of 2 weeks prior to initiation of the studies. […] Plasma sample preparations and analysis were the same as described in mice study.
endpoint name: Cmax (ng/mL)
Give the value, in units of ng/mL, as a plain number.

## Input Identify the reported Cmax for the following entry. N#Cc1ccc(Cc2nc(C(=O)NCC(=O)N3CC(F)(F)C[C@H]3C#N)cs2)cc1 [BR103354]
## Output 4400

###

- protocol text: Plasma stability, rat
- Type: in vitro ADME
- assay conditions: pH 7.4, rat (R), read-out: Plasma stability (% remaining at 60 min)
endpoint name: remaining at 1 h, 1 µM (%)
Field format: number, assumed %, no unit text.

## Input Read the entry N#Cc1ccc(Cc2nc(C(=O)NCC(=O)N3CC(F)(F)C[C@H]3C#N)cs2)cc1 [BR103354] and write its reported remaining at 1 h, 1 µM.
## Output 79
